Some compounds, each annotated with its measured s ODS.
# test protocol: RP-HPLC retention on Purosphere RP-18e (ODS) column, buffer pH 7.4-acetonitrile
# Format: physicochemical
# setup conditions: slope of Soczewiński-Wachtmeister equation, acetonitrile φ 0.3–0.6
# Method: Retention parameters reported as the log k values were calculated by the expression:(1) logk=log(tR−t0)/t0 where tR and t0 are the retention times of the solute and a non-retained compound (citric acid), respectively. […] As mobile phases buffer-acetonitrile mixtures were used. […] With the ODS column acetonitrile concentration in the effluent, expressed as a volume fraction (φ, v/v), was changed in the range 0.3–0.6, with the constant step of 0.1. […] They were detected under UV light at 210 and 254 nm. […]
value kind: s ODS

INSERT INTO measurements (structure_smiles, quantitative_readout) VALUES
  ('O=c1c(CCc2ccccc2)nnc2n1CCN2c1ccc(Cl)cc1', 5.81),
  ('Cc1ccc(N2CCn3c2nnc(-c2ccco2)c3=O)cc1', 4.39),
  ('Cc1cccc(N2CCn3c2nnc(-c2ccccc2)c3=O)c1', 5.02),
  ('O=c1c(-c2ccccc2)nnc2n1CCN2c1cccc(Cl)c1', 5.70),
  ('Cc1cccc(N2CCn3c2nnc(-c2ccccc2)c3=O)c1C', 4.85),
  ('O=c1c(Cc2cccc(Cl)c2)nnc2n1CCN2c1ccccc1', 5.85),
  ('CCOC(=O)Cc1nnc2n(c1=O)CCN2c1cccc(Cl)c1', 4.90),
  ('COC(=O)Cc1nnc2n(c1=O)CCN2c1ccc(Cl)cc1', 4.44),
  ('O=c1c(-c2ccco2)nnc2n1CCN2c1ccccc1Cl', 4.22),
  ('CCc1nnc2n(c1=O)CCN2c1cccc(Cl)c1', 3.15);

---

# test protocol: RP-HPLC retention on Purosphere RP-18e (ODS) column, buffer pH 7.4-acetonitrile
# Format: physicochemical
# setup conditions: extrapolated to buffer pH 7.4 as mobile phase, 25 °C
A collection of compounds and their measured log kw, ODS
value kind: log kw, ODS

INSERT INTO measurements (compound, value_kind, quantitative_readout) VALUES
  ('CCOC(=O)Cc1nnc2n(c1=O)CCN2c1ccc(C)cc1 [Compound 13]', 'log kw, ODS', 2.37),
  ('O=c1c(-c2ccco2)nnc2n1CCN2c1c(Cl)cccc1Cl [Compound 28]', 'log kw, ODS', 2.53),
  ('COc1ccccc1N1CCn2c1nnc(-c1ccccc1)c2=O [Compound 33]', 'log kw, ODS', 1.98),
  ('Cc1ccc(N2CCn3c2nnc(Cc2cccc(Cl)c2)c3=O)cc1 [Compound 49]', 'log kw, ODS', 3.31),
  ('Cc1ccc(N2CCn3c2nnc(Cc2ccccc2)c3=O)cc1 [Compound 45]', 'log kw, ODS', 3.35),
  ('Cc1ccc(N2CCn3c2nnc(Cc2ccc(Cl)cc2)c3=O)cc1 [Compound 50]', 'log kw, ODS', 3.22),
  ('O=c1c(CCc2ccccc2)nnc2n1CCN2c1ccc(Cl)c(Cl)c1 [Compound 65]', 'log kw, ODS', 4.29),
  ('COc1ccc(N2CCn3c2nnc(-c2ccco2)c3=O)cc1 [Compound 23]', 'log kw, ODS', 1.91),
  ('Cc1ccc(Cc2nnc3n(c2=O)CCN3c2ccc(C)cc2)cc1 [Compound 46]', 'log kw, ODS', 3.04);

---

# test protocol: RP-HPLC retention on IAM.PC.DD2 (immobilized artificial membrane) column, buffer pH 7.4-acetonitrile
# Format: physicochemical
# setup conditions: slope of Soczewiński-Wachtmeister equation, acetonitrile φ 0.2–0.5
In this section we review reported s IAM values for a set of molecules.
value kind: s IAM

INSERT INTO measurements (structure_smiles, value_kind, quantitative_readout) VALUES
  ('COc1ccc(N2CCn3c2nnc(-c2ccccc2)c3=O)cc1', 's IAM', 3.91),
  ('O=c1c(Cc2ccccc2Cl)nnc2n1CCN2c1ccc(Cl)cc1', 's IAM', 6.32),
  ('CCOC(=O)Cc1nnc2n(c1=O)CCN2c1ccccc1', 's IAM', 3.11),
  ('O=c1c(CCc2ccccc2)nnc2n1CCN2c1ccccc1Cl', 's IAM', 4.08),
  ('Cc1cccc(N2CCn3c2nnc(-c2ccccc2)c3=O)c1', 's IAM', 4.68),
  ('COC(=O)Cc1nnc2n(c1=O)CCN2c1ccc(Cl)cc1', 's IAM', 4.39),
  ('O=c1c(-c2ccccc2)nnc2n1CCN2c1ccc(Cl)cc1', 's IAM', 5.32),
  ('O=c1c(-c2ccco2)nnc2n1CCN2c1c(Cl)cccc1Cl', 's IAM', 3.90),
  ('Cc1ccc(N2CCn3c2nnc(-c2ccccc2)c3=O)cc1', 's IAM', 4.81),
  ('O=c1c(-c2ccccc2)nnc2n1CCN2c1ccccc1', 's IAM', 4.22),
  ('CCOC(=O)Cc1nnc2n(c1=O)CCN2c1ccc(Cl)cc1', 's IAM', 4.51),
  ('CCc1nnc2n(c1=O)CCN2c1ccccc1', 's IAM', 2.10),
  ('Cc1ccccc1N1CCn2c1nnc(-c1ccco1)c2=O', 's IAM', 2.72),
  ('CCOc1ccc(N2CCn3c2nnc(Cc2ccc(Cl)cc2)c3=O)cc1', 's IAM', 5.44),
  ('O=c1c(CCc2ccccc2)nnc2n1CCN2c1ccc(Cl)c(Cl)c1', 's IAM', 6.55),
  ('O=c1c(Cc2ccccc2)nnc2n1CCN2c1ccc(Cl)cc1', 's IAM', 5.06),
  ('O=c1c(-c2ccco2)nnc2n1CCN2c1ccc(Cl)cc1', 's IAM', 4.44),
  ('CCc1nnc2n(c1=O)CCN2c1ccc(C)cc1', 's IAM', 2.88),
  ('Cc1cccc(N2CCn3c2nnc(-c2ccco2)c3=O)c1C', 's IAM', 3.51),
  ('O=c1c(Cc2ccc(Cl)cc2)nnc2n1CCN2c1ccccc1', 's IAM', 4.81);

---

List of log kw, Cholester values.
# test protocol: RP-HPLC retention on Cosmosil Cholester column, buffer pH 7.4-acetonitrile
# Format: physicochemical
# setup conditions: extrapolated to buffer pH 7.4 as mobile phase, 25 °C
value kind: log kw, Cholester

INSERT INTO results (structure_smiles, quantitative_readout) VALUES
  ('O=c1c(-c2ccco2)nnc2n1CCN2c1ccc(Cl)cc1', 2.29),
  ('CCOC(=O)Cc1nnc2n(c1=O)CCN2c1ccc(Cl)cc1', 2.37),
  ('CCOc1ccc(N2CCn3c2nnc(CC(=O)OC)c3=O)cc1', 1.36),
  ('COc1ccccc1N1CCn2c1nnc(-c1ccco1)c2=O', 1.22),
  ('CCOC(=O)Cc1nnc2n(c1=O)CCN2c1ccc(OC)cc1', 0.65);

---

# test protocol: RP-HPLC retention on Cosmosil Cholester column, buffer pH 7.4-acetonitrile
# Type: physicochemical
# setup conditions: slope of Soczewiński-Wachtmeister equation, acetonitrile φ 0.4–0.6
value kind: s Cholester

INSERT INTO results (molecule, quantitative_readout) VALUES
  ('CCc1nnc2n(c1=O)CCN2c1ccccc1Cl [Compound 3]', 1.70),
  ('COC(=O)Cc1nnc2n(c1=O)CCN2c1ccc(OC)cc1 [Compound 9]', 1.82),
  ('O=c1c(CCc2ccccc2)nnc2n1CCN2c1ccc(Cl)c(Cl)c1 [Compound 65]', 6.20),
  ('O=c1c(-c2ccccc2)nnc2n1CCN2c1ccc(Cl)c(Cl)c1 [Compound 40]', 6.02),
  ('COc1ccccc1N1CCn2c1nnc(-c1ccccc1)c2=O [Compound 33]', 2.94),
  ('CCOC(=O)Cc1nnc2n(c1=O)CCN2c1ccc(Cl)c(Cl)c1 [Compound 17]', 4.61),
  ('Cc1cccc(N2CCn3c2nnc(-c2ccccc2)c3=O)c1C [Compound 36]', 3.60),
  ('COc1ccc(N2CCn3c2nnc(-c2ccccc2)c3=O)cc1 [Compound 34]', 3.80),
  ('O=c1c(-c2ccco2)nnc2n1CCN2c1ccccc1 [Compound 18]', 3.12),
  ('Cc1ccc(N2CCn3c2nnc(-c2ccco2)c3=O)cc1 [Compound 20]', 3.68);

---

Let's look at some compounds and their measured s IAM.
# test protocol: RP-HPLC retention on IAM.PC.DD2 (immobilized artificial membrane) column, buffer pH 7.4-acetonitrile
# Assay type: physicochemical
# setup conditions: slope of Soczewiński-Wachtmeister equation, acetonitrile φ 0.2–0.5
value kind: s IAM

INSERT INTO assay_data (compound, value_kind, quantitative_readout) VALUES
  ('O=c1c(Cc2ccccc2Cl)nnc2n1CCN2c1ccccc1 [Compound 42]', 's IAM', 4.78),
  ('CCc1nnc2n(c1=O)CCN2c1cccc(Cl)c1 [Compound 4]', 's IAM', 2.60),
  ('CCc1nnc2n(c1=O)CCN2c1ccccc1Cl [Compound 3]', 's IAM', 2.51),
  ('O=c1c(Cc2ccc(Cl)cc2)nnc2n1CCN2c1ccc(Cl)cc1 [Compound 60]', 's IAM', 6.18),
  ('COC(=O)Cc1nnc2n(c1=O)CCN2c1ccc(C)cc1 [Compound 8]', 's IAM', 3.33),
  ('CCOc1ccc(N2CCn3c2nnc(-c2ccccc2)c3=O)cc1 [Compound 35]', 's IAM', 4.48),
  ('CCOC(=O)Cc1nnc2n(c1=O)CCN2c1cccc(Cl)c1 [Compound 15]', 's IAM', 4.45),
  ('CCOc1ccc(N2CCn3c2nnc(Cc2cccc(Cl)c2)c3=O)cc1 [Compound 54]', 's IAM', 5.61),
  ('COc1ccccc1N1CCn2c1nnc(-c1ccco1)c2=O [Compound 22]', 's IAM', 3.02),
  ('O=c1c(Cc2cccc(Cl)c2)nnc2n1CCN2c1ccccc1 [Compound 43]', 's IAM', 5.18),
  ('CCOC(=O)Cc1nnc2n(c1=O)CCN2c1ccc(C)cc1 [Compound 13]', 's IAM', 3.85),
  ('CCOc1ccc(N2CCn3c2nnc(Cc2ccc(C)cc2)c3=O)cc1 [Compound 52]', 's IAM', 5.02),
  ('CCOc1ccc(N2CCn3c2nnc(CC(=O)OC)c3=O)cc1 [Compound 10]', 's IAM', 3.39),
  ('CCOC(=O)Cc1nnc2n(c1=O)CCN2c1ccc(OC)cc1 [Compound 14]', 's IAM', 2.58),
  ('CCc1nnc2n(c1=O)CCN2c1ccc(Cl)c(Cl)c1 [Compound 6]', 's IAM', 4.11),
  ('COC(=O)Cc1nnc2n(c1=O)CCN2c1ccc(OC)cc1 [Compound 9]', 's IAM', 2.45),
  ('COc1ccccc1N1CCn2c1nnc(-c1ccccc1)c2=O [Compound 33]', 's IAM', 3.62),
  ('Cc1ccccc1N1CCn2c1nnc(-c1ccccc1)c2=O [Compound 30]', 's IAM', 3.52),
  ('O=c1c(-c2ccco2)nnc2n1CCN2c1ccc(Cl)c(Cl)c1 [Compound 27]', 's IAM', 6.30),
  ('CCOC(=O)Cc1nnc2n(c1=O)CCN2c1ccc(Cl)c(Cl)c1 [Compound 17]', 's IAM', 5.01),
  ('CCOc1ccc(N2CCn3c2nnc(Cc2ccccc2Cl)c3=O)cc1 [Compound 53]', 's IAM', 5.17),
  ('O=c1c(Cc2cccc(Cl)c2)nnc2n1CCN2c1ccc(Cl)cc1 [Compound 59]', 's IAM', 6.01),
  ('Cc1cccc(N2CCn3c2nnc(-c2ccccc2)c3=O)c1C [Compound 36]', 's IAM', 4.05),
  ('O=c1c(-c2ccccc2)nnc2n1CCN2c1ccccc1Cl [Compound 37]', 's IAM', 3.84),
  ('O=c1c(-c2ccco2)nnc2n1CCN2c1ccccc1 [Compound 18]', 's IAM', 3.23),
  ('CCOc1ccc(N2CCn3c2nnc(Cc2ccccc2)c3=O)cc1 [Compound 51]', 's IAM', 4.51),
  ('O=c1c(CCc2ccccc2)nnc2n1CCN2c1ccccc1 [Compound 61]', 's IAM', 4.45),
  ('Cc1ccc(N2CCn3c2nnc(Cc2ccc(Cl)cc2)c3=O)cc1 [Compound 50]', 's IAM', 5.62),
  ('Cc1ccc(Cc2nnc3n(c2=O)CCN3c2ccc(C)cc2)cc1 [Compound 46]', 's IAM', 5.22),
  ('Cc1ccccc1N1CCn2c1nnc(Cc1ccccc1Cl)c2=O [Compound 56]', 's IAM', 4.31),
  ('O=c1c(Cc2ccccc2)nnc2n1CCN2c1ccccc1 [Compound 41]', 's IAM', 6.45),
  ('CCc1nnc2n(c1=O)CCN2c1ccc(Cl)cc1 [Compound 5]', 's IAM', 3.25),
  ('O=c1c(-c2ccccc2)nnc2n1CCN2c1ccc(Cl)c(Cl)c1 [Compound 40]', 's IAM', 6.40),
  ('Cc1ccc(N2CCn3c2nnc(Cc2cccc(C)c2)c3=O)cc1 [Compound 47]', 's IAM', 5.14),
  ('Cc1ccc(N2CCn3c2nnc(Cc2ccccc2)c3=O)cc1 [Compound 45]', 's IAM', 4.69),
  ('COC(=O)Cc1nnc2n(c1=O)CCN2c1ccccc1 [Compound 7]', 's IAM', 2.38),
  ('O=c1c(-c2ccco2)nnc2n1CCN2c1ccccc1Cl [Compound 24]', 's IAM', 3.25),
  ('Cc1ccc(N2CCn3c2nnc(-c2ccco2)c3=O)cc1 [Compound 20]', 's IAM', 3.90),
  ('O=c1c(-c2ccco2)nnc2n1CCN2c1cccc(Cl)c1 [Compound 25]', 's IAM', 4.55),
  ('COc1ccc(N2CCn3c2nnc(-c2ccco2)c3=O)cc1 [Compound 23]', 's IAM', 3.13);
